# Species on record: Rattus norvegicus
# measurementProtocol: Open TG-GATES - Regimen: Single
# Format: toxicity, organism-based, Sprague-Dawley
# Design: regimen Single, gender Male, age 6 weeks
# experimentalParameters: in vivo, po, 0 mg/kg, 24 h, tissue Plasma, route gavage, dose level Control
This listing pairs compounds with measured TP.
measuredQuantity: TP (g/dL)

INSERT INTO assay_data (compound, resultunits, assayvalue) VALUES
  ('CCC1(c2ccccc2)C(=O)NC(=O)NC1=O', 'g/dL', 5.6),
  ('O=NN(CCCl)C(=O)NC1CCCCC1', 'g/dL', 5.8),
  ('CC(C)N(CCC(C(N)=O)(c1ccccc1)c1ccccn1)C(C)C (stereo not given) [DISOPYRAMIDE]', 'g/dL', 5.5),
  ('OCCOCCN1CCN(C(c2ccccc2)c2ccc(Cl)cc2)CC1 (stereo not given) [HYDROXYZINE]', 'g/dL', 5.7),
  ('CC[C@H]1[C@@H]2C[C@H]3[C@@H]4N(C)c5ccccc5[C@]45C[C@@H]([C@@H]2[C@H]5O)N3[C@@H]1O', 'g/dL', 5.4);
